Test: Haemolysis assay
Format: cell-based
Conditions: human, % Human Whole Blood Haemolysis
testReadout: hemolysis at 3 h, 25 µg mL-1 (%)
One number for each entry, in %.

hemolysis at 3 h, 25 µg mL-1 recorded for this molecule, CCCCCCCCCC(=O)N[C@@H](Cc1c[nH]c2ccccc12)C(=O)N[C@H](CC(N)=O)C(=O)N[C@@H](CC(=O)O)C(=O)N[C@@H]1C(=O)NCC(=O)N[C@@H](CCCN)C(=O)N[C@@H](CC(=O)O)C(=O)N[C@H](C)C(=O)N[C@@H](CC(=O)O)C(=O)NCC(=O)N[C@H](CO)C(=O)N[C@@H]([C@H](C)CC(=O)O)C(=O)N[C@@H](CC(=O)c2ccccc2N)C(=O)O[C@@H]1C [Compound 4, Daptomycin] , is 0

Source of measurements: paper PMC5750218
